Where do these numbers come from? They come from patent US11207312B2.

system: P. aeruginosa MB9798 (efflux+, IMP-1 plasmid); settings: fold difference between efflux+ (MB9798) and efflux− (MB9799) strains
In plain terms, low Efflux ratio, meaning strictly below 2, gives t, and everything else gives f.

I'd appreciate it if you could check whether NC[C@@H](O)CNS(=O)(=O)c1ccc(N[C@@H]2CCC[C@H]2N)c(-c2nn[nH]n2)c1S(N)(=O)=O [Example 179] has Efflux ratio smaller than 2.
f

For this molecule, is Efflux ratio lower than 2? COC1(CO)CCN(c2ccc(S(=O)(=O)NC[C@H](O)CN)c(S(N)(=O)=O)c2-c2nn[nH]n2)CC1 [Example 21]
t

Consider the molecule CC1(O)CCCN(c2ccc(S(=O)(=O)C3CNC3)c(S(N)(=O)=O)c2-c2nnn[nH]2)C1 (centres unmarked) [Example 59] . Is its Efflux ratio strictly less than 2?
f

Report whether reported Efflux ratio is lower than 2 (strictly) for NCCOC1CCN(c2ccc(S(=O)(=O)NC[C@H](O)CN)c(S(N)(=O)=O)c2-c2nn[nH]n2)CC1 [Example 209]
t

For NS(=O)(=O)c1c(S(=O)(=O)N[C@@H]2CCNC2)ccc(N2CCC(OCCO)CC2)c1-c1nnn[nH]1 [Example 88] , is the recorded Efflux ratio below the cut-off of 2?
t

Please indicate whether the reported Efflux ratio of N[C@H]1CCCN(c2ccc(S(=O)(=O)N[C@@H]3CCNC3)c(S(N)(=O)=O)c2-c2nn[nH]n2)C1=O [Example 156] is strictly below 2.
f

Input NCCN1CCN(c2ccc(S(=O)(=O)N[C@@H]3CCNC3)c(S(N)(=O)=O)c2-c2nnn[nH]2)CC1 [Example 76] ; condition: Efflux ratio strictly below 2. Does it hold?
t
